# assay method text: NCI Yeast Anticancer Drug Screen. Data for the bub3 strain (AID 167)
# applied conditions: S. cerevisiae bub3 mutant strain, at 50.0 µM, active compounds read high
This is part of a sample that, as a whole, favours compounds with a hit. Of some 79,000 tested, about 15% had one in any assay.
measurement name: growth inhibition (%)
A number alone suffices; assume %.

Below, each entry is followed by its recorded growth inhibition result.
N#CC(C(=O)Nc1ccccc1)C1=C(Cl)C(=O)c2ccccc2C1=O (stereo not given)    92
CC(C)C1=CC2=C[C@H](O)[C@H]3C(C)(C)CCC[C@]3(C)C2=C(O)C1=O    92.3
O=C(N=Nc1cc(Cl)ccc1Cl)NNc1cc(Cl)ccc1Cl    60.1

Okay, now this compound:
Query: growth inhibition; subject: COc1ccccc1/C=C1\Sc2scc(-c3cccc([N+](=O)[O-])c3)[n+]2C1=O
83.8

----------
Consider the following molecules and their measured growth inhibition readings.
# assay method text: NCI Yeast Anticancer Drug Screen. Data for the rad52 strain (AID 147);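 note: 0% = growth of vehicle-treated control cultures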
# applied conditions: S. cerevisiae rad52 mutant growth inhibition; at 3.7 µM; active compounds read high
Compounds without any hit were thinned out: in the full panel of roughly 79,000, 15% have a hit.
A number alone suffices; assume %.

Below, each entry is followed by its recorded growth inhibition result.
O=[N+]([O-])c1cccc([N+](=O)[O-])c1S(=O)(=O)c1ccccc1    93
CCCCCCCCCCCCCC[N+](C)(CC(=O)[O-])Cc1ccccc1 (stereo not given)    23
CCC(=O)Oc1c(Cl)cc(Cl)c2ccccc12    -2
CC(=O)Oc1cc(-c2cc(OC(C)=O)c(OC(C)=O)c3ccccc23)c2ccccc2c1OC(C)=O    4
c1ccc2c(c1)Oc1cccc3cccc-2c13    3

Query: growth inhibition; subject: Cc1ccc(S(=O)(=O)NC(=O)NC2=NC(C)(C)N(c3ccc(Cl)c(Cl)c3)C(N)=N2)cc1
-2

Next entry: CCCCCCCC1(N=[N+]=[N-])C(=O)c2ccccc2N(C)C1=O (stereo not given)
18

Next entry: Cc1ccc(Cl)c2[nH]c(-c3ccccc3)cc(=O)c12
-1

Next entry: CC1CCN(CCC(=O)c2ccc(Cl)cc2)CC1
8

Next entry: S=C(S)NN1CCOCC1
68

----------
# assay method text: NCI Yeast Anticancer Drug Screen. Data for the rad50 strain (AID 155);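 note: 0% = growth of vehicle-only cultures of the same strain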
# applied conditions: S. cerevisiae rad50 strain growth inhibition; at 33.0 µM; active compounds read high
This is part of a sample that, as a whole, favours compounds with a hit. Of some 79,000 tested, about 15% had one in any assay.
measurement name: growth inhibition (%)
A number alone suffices; assume %.

Below, each entry is followed by its recorded growth inhibition result.
COC(=O)c1ccc(CCC2=CC(=O)C(Br)=CC2=O)cc1    18
CN=C(N)N/N=C/c1ccc2c(c1)Cc1ccccc1-2    -2
CCN(CC)C(=S)N/N=C(/C)c1cccc(/C(C)=N\NC(=S)N(CC)CC)n1    50
CN(C)C[C@H]1CC[C@@H](CN(C)C)C1=O    37
COc1cc(C2C3=C(COC3=O)Oc3cc4c(cc32)OCO4)ccc1O (stereo not given)    35

Query: growth inhibition; subject: O=[N+]([O-])c1ccc2nc3ccccc3cc2c1
89

Next entry: O=C(CCCN1CCC(O)(c2ccc(Cl)cc2)CC1)c1ccc(F)cc1
64

Next entry: N#CN=Nc1cc(Cl)c(N=NC#N)cc1Cl
3

----------
Consider the following compounds and their measured growth inhibition readings.
# assay method text: NCI Yeast Anticancer Drug Screen. Data for the rad14 strain (AID 159);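 note: 0% = growth of vehicle-treated control cultures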
# applied conditions: S. cerevisiae rad14 strain growth inhibition; at 100.0 µM; active compounds read high
# Description: Growth inhibition of yeast strains with defined genetic alterations is measured as a screen for potential anti-cancer activity. Selected strains with alterations in DNA damage repair or cell cycle control were exposed to compounds and growth inhibition was measured relative to vehicle treated controls. The strain used in this assay is rad14
About 79,000 compounds went through this panel and 15% of them were active in at least one assay; those are over-represented in the sample as a whole. The source made the active and inactive calls. No stated cut-off is given here; in the data, active means growth inhibition above about 70%; inactive means the rest.

Below, each entry is followed by its recorded growth inhibition result.
Cc1[nH]c2ccccc2c1C(c1ccc(N)cc1)c1c(C)[nH]c2ccccc12    50% (inactive)
Cc1ccc(Cl)c2[nH]c(-c3ccccc3)cc(=O)c12    1% (inactive)
Nc1nc(Cl)c(Cl)c(Cl)n1    99% (active)
CC(=O)OCCOCNC(=S)N/N=C(\C)c1cnccn1    84% (active)
COC(=O)c1ccc([N+](=O)[O-])c(O)c1    98% (active)
CNC1C(OC2C(OC3C(O)C(O)C(N=C(N)N)C(O)C3N=C(N)N)OC(C)C2(O)CO)OC(CO)C(O)C1O (stereo unspecified)    -9% (inactive)

Query: growth inhibition; subject: CN(C)c1ccc(C(C#N)=C(C#N)C#N)cc1
33% (inactive)

Next entry: COc1ccc(/C=C/C(=O)C(C)(C)Br)cc1
99% (active)

Next entry: O=C1C(=O)c2ccccc2C=C1[N+](=O)[O-]
86% (active)

Next entry: COc1ccc2nc3c([N+](=O)[O-])ccc(NCCN(C)C)c3c(NCCN(C)C)c2c1
1% (inactive)

Next entry: OCC(Cn1cncn1)(c1ccc(F)cc1F)n1cncn1 (stereo unspecified)
74% (active)

----------
# assay method text: NCI Yeast Anticancer Drug Screen. Data for the sgs1 mgt1 strain (AID 161);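 note: 0% = growth of cultures given vehicle only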
# applied conditions: S. cerevisiae sgs1 mgt1 strain, at 50.0 µM (retest, dose inferred, filed as 5.0)
Compounds without any hit were thinned out: in the full panel of roughly 79,000, 15% have a hit. Activity calls are given as the source filed them. Cut-off read from the data, not from the text of the source: active = growth inhibition above about 70%; inactive = the rest.
Outcomes you can answer with include only these: active, inactive

These solved cases illustrate the format of a correct answer.
O=C1C2C=CC1C1C(=O)OC(=O)C21 (stereo not given)    inactive
Cc1ccc(CSC(N)=Nc2ccccc2)cc1C    inactive
CN(C)C[C@H]1CC[C@@H](CN(C)C)C1=O    inactive
O=[N+]([O-])c1cc(CCl)ccc1CCl    active
S=c1[nH]nc(Nc2ccc(Cl)cc2)s1    active

Call for entry CN(N=O)N1C(=O)SCC(c2ccccc2)(c2ccccc2)C1=O :
inactive

Next entry: O=[n+]1c2ccc(Cl)cc2n([O-])c2ccc(Cl)cc21
inactive

Next entry: O=C(N=Nc1ccccc1Cl)NNc1ccccc1Cl
inactive

Next entry: c1ccc2c(c1)c1ncccc1c1nccnc21
inactive

Next entry: O=C(Nc1ccc(Cl)cc1)OCC#CCCl
active

----------
# assay method text: NCI Yeast Anticancer Drug Screen. Data for the mgt1 strain (AID 153)
# applied conditions: S. cerevisiae mgt1 mutant growth inhibition; at 11.0 µM; active compounds read high
The panel holds about 79,000 compounds, 15% with a hit somewhere; the sample as a whole holds those more often. Active and inactive are the calls of the source. No stated cut-off is given here; in the data, active means growth inhibition above about 70%; inactive means the rest.
measurement name: growth inhibition

Below, each entry is followed by its recorded growth inhibition result.
Nc1nc(Cl)c(Cl)c(Cl)n1    20% (inactive)
O=C1c2cc([N+](=O)[O-])ccc2-c2cccc(F)c21    12% (inactive)
CCCCCCCCCCNC(=O)OCC    4% (inactive)
N/C(=N\OC(=O)NC(Cl)=C(Cl)Cl)c1cc(C(F)(F)F)cc(C(F)(F)F)c1    6% (inactive)
COC(=O)CSSCc1ccc([N+](=O)[O-])cc1    16% (inactive)

Query: growth inhibition; subject: c1ccc2c(c1)-c1nc3ccccc3cc1C2N1CCOCC1 (stereo unspecified)
-1% (inactive)

----------
# assay method text: NCI Yeast Anticancer Drug Screen. Data for the cln2 rad14 strain (AID 165);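 note: 0% = growth equal to vehicle treated cultures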
# applied conditions: S. cerevisiae cln2 rad14 strain, at 50.0 µM (retest, dose inferred, filed as 5.0), active compounds read high
Compounds without any hit were thinned out: in the full panel of roughly 79,000, 15% have a hit. Activity calls are given as the source filed them. No stated cut-off is given here; in the data, active means growth inhibition above about 70%; inactive means the rest.
measurement name: growth inhibition

C[CH2][Sn]([CH2]C)([O]C(=O)C(OC(C)=O)c1ccccc1)[O]C(=O)C(OC(C)=O)c1ccccc1 (stereo not drawn)    44% (inactive)

Query: growth inhibition; subject: Cc1ccc(-n2cc(-c3ccc(Cl)cc3)c(C#N)c2N)cc1
7% (inactive)

Next entry: COC(=O)C1=C(C)NC(C)=C(C(=O)OC)C1c1cccc(/[N+]([O-])=C/c2ccccc2)c1
33% (inactive)

----------
# assay method text: NCI Yeast Anticancer Drug Screen. Data for the mgt1 strain (AID 153)
# applied conditions: S. cerevisiae mgt1 mutant growth inhibition; at 33.0 µM
This is part of a sample that, as a whole, favours compounds with a hit. Of some 79,000 tested, about 15% had one in any assay. Activity calls are given as the source filed them. No stated cut-off is given here; in the data, active means growth inhibition above about 70%; inactive means the rest.
Outcomes you can answer with include only these: Y = active, N = inactive

CCOC(=O)c1cc(-c2ccc(Cl)cc2)c([N+](=O)[O-])n1C    Y

Call for entry COC(=O)c1ccc(NCC2=CC(=O)C=CC2=O)cc1O :
Y

Next entry: CC(=O)Oc1cc(-c2cc(OC(C)=O)c(OC(C)=O)c3ccccc23)c2ccccc2c1OC(C)=O
N
